# testedTarget: CFTR ΔF508 (Homo sapiens, UniProt P13569, DEL508-508)
# Construct: bronchial epithelial cells isolated from CF patients homozygous for the CFTR ΔF508 mutation; McGill University; Asterand; University of North Carolina hAEC-CF; host or cells: primary human bronchial epithelial cells from CF patients homozygous for ΔF508, differentiated at air-liquid interface
# Sequence (P13569 with tags, fused parts or gaps DEL508-508): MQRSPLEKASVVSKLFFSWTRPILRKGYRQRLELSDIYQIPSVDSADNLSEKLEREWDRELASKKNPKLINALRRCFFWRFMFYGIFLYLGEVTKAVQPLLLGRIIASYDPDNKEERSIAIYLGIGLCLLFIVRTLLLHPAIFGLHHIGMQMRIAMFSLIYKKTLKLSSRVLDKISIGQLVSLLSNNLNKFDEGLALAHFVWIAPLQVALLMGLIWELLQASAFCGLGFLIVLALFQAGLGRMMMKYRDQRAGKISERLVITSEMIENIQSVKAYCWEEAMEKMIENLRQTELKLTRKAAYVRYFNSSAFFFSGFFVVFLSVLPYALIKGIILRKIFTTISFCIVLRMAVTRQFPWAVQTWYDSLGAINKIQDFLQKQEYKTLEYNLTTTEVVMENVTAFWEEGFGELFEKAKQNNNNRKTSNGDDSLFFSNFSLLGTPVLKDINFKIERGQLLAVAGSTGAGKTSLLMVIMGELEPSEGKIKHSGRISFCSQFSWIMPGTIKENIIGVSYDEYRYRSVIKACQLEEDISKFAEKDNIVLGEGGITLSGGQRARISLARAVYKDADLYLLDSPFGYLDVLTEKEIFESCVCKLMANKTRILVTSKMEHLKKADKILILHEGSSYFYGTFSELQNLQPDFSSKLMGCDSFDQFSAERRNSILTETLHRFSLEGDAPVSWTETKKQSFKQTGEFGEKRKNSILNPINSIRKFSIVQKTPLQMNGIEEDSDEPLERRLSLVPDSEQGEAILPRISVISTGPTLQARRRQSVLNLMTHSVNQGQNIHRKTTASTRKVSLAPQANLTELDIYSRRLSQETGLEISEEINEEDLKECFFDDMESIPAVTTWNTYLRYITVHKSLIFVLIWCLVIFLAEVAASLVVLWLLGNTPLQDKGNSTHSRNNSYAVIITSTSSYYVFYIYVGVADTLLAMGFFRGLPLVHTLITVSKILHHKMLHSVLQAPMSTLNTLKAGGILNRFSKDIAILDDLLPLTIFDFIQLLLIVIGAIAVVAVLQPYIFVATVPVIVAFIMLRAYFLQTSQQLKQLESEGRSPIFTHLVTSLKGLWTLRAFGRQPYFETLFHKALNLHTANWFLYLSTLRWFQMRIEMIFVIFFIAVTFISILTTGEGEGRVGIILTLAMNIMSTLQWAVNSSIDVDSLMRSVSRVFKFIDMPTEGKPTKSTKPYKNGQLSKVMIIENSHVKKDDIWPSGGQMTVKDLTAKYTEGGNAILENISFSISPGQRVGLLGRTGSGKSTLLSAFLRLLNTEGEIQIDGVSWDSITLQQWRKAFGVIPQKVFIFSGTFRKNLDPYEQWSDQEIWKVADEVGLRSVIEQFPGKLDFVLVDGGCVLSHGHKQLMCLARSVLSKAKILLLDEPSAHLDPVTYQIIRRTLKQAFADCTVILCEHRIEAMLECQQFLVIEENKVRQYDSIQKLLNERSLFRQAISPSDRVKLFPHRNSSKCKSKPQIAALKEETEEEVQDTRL
# measurementNotes: Chronic TECC assay, primary bronchial epithelial cells of CF patients homozygous for CFTR ΔF508 (corrector, co-corrector and potentiator)
# Type: cell-based
# measurementContext: chronic TECC; Ieq = calculations based on the maximum current; read-out: EC50 (nM) (Ieq*)
Collected EC50 values appear next to each entry.
State just the number; it will be interpreted in nM.

Take a look at these entries with their results.
# compound, testedTarget, readoutType, measuredValue
data = [
    ("CCS(=O)(=O)NC(=O)c1cc(-c2ccc(N3CCOCC3)cc2)c2c(C)nn(-c3ccc(F)cc3F)c2n1 [Compound 113]", "CFTR ΔF508 (Homo sapiens, UniProt P13569, DEL508-508)", "EC50", 32),
    ("COCCN(C)c1ccc(-c2cc(C(=O)NS(C)(=O)=O)nc3c2c(C2CCC2)nn3-c2ccccc2)cn1 [Compound 63]", "CFTR ΔF508 (Homo sapiens, UniProt P13569, DEL508-508)", "EC50", 40),
]

We next turn to a different compound, shown below.
For this compound ( COCCN(C)c1ccc(-c2cc(C(=O)NS(C)(=O)=O)nc3c2c(C(C)C)nn3-c2cccc(N3CCOCC3)c2)cn1 [Compound 86] ), measured EC50 is 30

----------
# testedTarget: CFTR ΔF508 (Homo sapiens, UniProt P13569, DEL508-508)
# Construct: bronchial epithelial cells isolated from CF patients homozygous for the CFTR ΔF508 mutation; McGill University; Asterand; University of North Carolina hAEC-CF; host or cells: primary human bronchial epithelial cells from CF patients homozygous for ΔF508, differentiated at air-liquid interface
# measurementNotes: Chronic TECC assay, primary bronchial epithelial cells of CF patients homozygous for CFTR ΔF508 (corrector, co-corrector and potentiator)
# Assay type: cell-based
# measurementContext: chronic TECC; test compound at 1 μM; Ieq = calculations based on the maximum current
# Description: Primary Bronchial Epithelial Cells Protocol The TECC (Tranepithelial Clamp Circuit, EP-design) assay measures the functionality of the cystic fibrosis Transmembrane Conductance regulator (CFTR) by measuring the short circuit current (Isc) generated over the basolateral and apical membrane of lung epithelial cells. In TECC the transepithelial potential PD and transepithelial resistance (Rt) are measured in an open circuit and transformed to Ieq using Ohm's law. […]
readoutType: % Activity at 1 μM (Ieq*) (%)
State just the number; it will be interpreted in %.

# compound, testedTarget, unitOfMeasurement, measuredValue
records = [
    ("CC(C)c1nn(-c2ccccc2)c2nc(C(=O)NS(C)(=O)=O)cc(-c3ccc(N4CCOCC4)nc3)c12 [Compound 34]", "CFTR ΔF508 (Homo sapiens, UniProt P13569, DEL508-508)", "%", 270),
    ("COCCN(C)c1ccc(-c2cc(C(=O)NS(C)(=O)=O)nc3c2c(C2CCC2)nn3-c2ccccc2)cc1 [Compound 75]", "CFTR ΔF508 (Homo sapiens, UniProt P13569, DEL508-508)", "%", 316),
]

For this compound ( CC(C)c1nn(-c2cccc(N(C)C)c2)c2nc(C(=O)NS(C)(=O)=O)cc(-c3cnc(N4CCC(C#N)CC4)nc3)c12 [Compound 95] ), measured % Activity at 1 μM (Ieq*) is 180

For this compound ( CC(C)c1nn(C2CCCCC2)c2nc(C(=O)NS(C)(=O)=O)cc(-c3cnc(N4CCC(C#N)CC4)nc3)c12 [Compound 119] ), measured % Activity at 1 μM (Ieq*) is 157

For this compound ( CC(C)c1nn(-c2cccc(N3CCOCC3)c2)c2nc(C(=O)NS(C)(=O)=O)cc(-c3ccc(N4CCC(C#N)CC4)nc3)c12 [Compound 85] ), measured % Activity at 1 μM (Ieq*) is 120

For this compound ( CCS(=O)(=O)NC(=O)c1cc(-c2cnc(N(C)C)nc2)c2c(C(C)C)nn(-c3cccc(N4CCOCC4)c3)c2n1 [Compound 30] ), measured % Activity at 1 μM (Ieq*) is 450

For this compound ( CC(C)c1nn(-c2cccc(N(C)C)c2)c2nc(C(=O)NS(C)(=O)=O)cc(-c3cnc(N(C)C4CCOCC4)nc3)c12 [Compound 91] ), measured % Activity at 1 μM (Ieq*) is 250

For this compound ( COCC1CCN(c2cc(C(=O)NS(C)(=O)=O)nc3c2c(C(C)C)nn3-c2cccc(N(C)C)c2)CC1 [Compound 144] ), measured % Activity at 1 μM (Ieq*) is 350

For this compound ( COCCN(C)c1ccc(-c2cc(C(=O)NS(C)(=O)=O)nc3c2c(C2CCC2)nn3-c2ccccc2)cn1 [Compound 63] ), measured % Activity at 1 μM (Ieq*) is 325

For this compound ( CC1CN(c2ccc(-c3cc(C(=O)NS(C)(=O)=O)nc4c3c(C(C)C)nn4C3CCCCC3)cn2)CC(C)O1 (centres unmarked) [Compound 93] ), measured % Activity at 1 μM (Ieq*) is 220

For this compound ( CC(C)c1nn(-c2cccc(N(C)C)c2)c2nc(C(=O)NS(C)(=O)=O)cc(-c3ccc(N(C)C4CCOCC4)cc3)c12 [Compound 96] ), measured % Activity at 1 μM (Ieq*) is 310
